Data origin: PubChem BioAssay (NCATS)

Assay: Drug repurposing screens with cells derived from glioblastoma tumor samples (AID 1345199); further: on the % scale 0 is the no-effect control and ±100 the full control effect; nearly all actives have a fitted effect of over 40% in size
Details: GBM patient neurospheres viability, ATP luminescence, 48 h; at 45.9 µM (top of the series); tumour line B
Experimental: CD133+ cells were isolated from GBM patient biopsies and cultured as neurospheres. Neurospheres from four patients were used to screen the NCATS pharmaceutical collection (NPC) library of approved drugs and bioactive compounds. […] The neurospheres were incubated with drugs for 48 hours in 1536-well format, then assayed with an ATP content cell viability assay. […]
Results filed as inconclusive are left out. The source made the active and inactive calls. The call rests on the fitted dose curve; in most records, active means well fitted inhibition curve with a large enough effect; inconclusive means small, poorly fitted or top-dose-only effect; inactive means flat fitted curve, though single readings scatter.
Kindly supply the reported activity, negative = cell killing values for the records listed here.

Reference set, count: 5
CC(=O)[C@H]1CC[C@H]2[C@@H]3CC[C@@H]4C[C@H](O)CC[C@]4(C)[C@H]3CC[C@]12C    -17.7% (inactive)
COc1ccc2c3c1O[C@H]1[C@@H](O)C=C[C@H]4[C@@H](C2)NCC[C@@]341    -18.4% (inactive)
ClCC1CO1 (centres undefined)    -15% (inactive)
O=C/C=C/c1ccccc1    0.0687% (inactive)
Oc1cc(Cl)c(Cl)cc1Cl    -12.6% (inactive)

For each listed entry, give its activity, negative = cell killing.
1. O=C1CCO1
2. O=C(NC(=O)c1c(F)cccc1F)Nc1ccc(Cl)c(Oc2ncc(C(F)(F)F)cc2Cl)c1
3. CC(C)CCON=O
4. CCN1C[C@]2(COC)[C@H](O)C[C@H](OC)[C@@]34[C@@H]5C[C@@]6(O)[C@H](OC(=O)c7ccccc7)[C@@H]5[C@@](OC(C)=O)([C@@H]([C@H](OC)[C@H]23)[C@@H]14)[C@@H](O)[C@@H]6OC
5. CCON=O
6. CCC1(CC)C(=O)NC(=O)N(C)C1=O
7. C=CCN1CC[C@]23c4c5ccc(O)c4O[C@H]2[C@@H](O)C=C[C@H]3[C@H]1C5
8. C[C@]12CCC(=O)C[C@@H]1CC[C@@H]1[C@@H]2CC[C@]2(C)[C@@H](O)CC[C@@H]12

Response:
1. -1.82% (inactive)
2. -0.522% (inactive)
3. 0.0037% (inactive)
4. -6.48% (inactive)
5. -13.3% (inactive)
6. -3.71% (inactive)
7. -22.5% (inactive)
8. -19.9% (inactive)

Query: Report activity, negative = cell killing for `CCC1(c2ccccc2)C(=O)NC(=O)NC1=O` please.
Response: -10.3% (inactive)

* * *

test: S16 Schwann cell PMP22 intronic element beta-lactamase assay (AID 624044); conditions: S16 rat Schwann cells, PMP22 element beta-lactamase FRET, 24 h; series mostly up to 38.3 µM;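 further: 0% = DMSO and -100% = potassium clavulanate positive control; nearly all actives have a fitted effect of over 15% in size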
Records with an inconclusive call do not appear. Active and inactive are the calls of the source. Calls come from the whole dose curve.
Parameter call: string, one of true = active, false = inactive

CCC1(C)CC(=O)NC(=O)C1    false

Query: Which outcome did this test record for the molecule `CNC(=O)OCC[N+](C)(C)C` ?
Response: false

Query: Which outcome did this test record for the molecule CC(N)Cc1ccc(O)cc1 (stereo unspecified) ?
Response: false

Query: Which outcome did this test record for the molecule `Cn1sc(Cl)cc1=O` ?
Response: false

Query: Which outcome did this test record for the molecule CC1OC1P(=O)(O)O (stereo unspecified) ?
Response: false

* * *

system: CP262; assay: qHTS profiling for inhibitors of Plasmodium falciparum proliferation (AID 504749); further: nearly all actives have a fitted effect of over 60% in size; conditions: P. falciparum in erythrocytes, SYBR Green DNA, 72 h; series mostly up to 28.7 µM
Results filed as inconclusive are left out. Activity calls are given as the source filed them. Calls follow the shape of the dose curve; as a rule, active = well fitted inhibition curve with a large enough effect; inconclusive = small, poorly fitted or top-dose-only effect; inactive = flat fitted curve, though single readings scatter.
Parameter call: string, one of True (active), False (inactive)

CC(=O)OC1CN2CCC1CC2 (centres undefined)    False
N#CC1(N2CCCCC2)CCCCC1    False
O=c1c2ccccc2[se]n1-c1ccccc1    False

Query: Which outcome did this test record for the molecule OC(c1ccccc1)(c1ccccc1)C1CN2CCC1CC2 (centres undefined) ?
Response: False

Query: Which outcome did this test record for the molecule `CCC1(C)CC(=O)NC(=O)C1` ?
Response: False

Query: Which outcome did this test record for the molecule CCC1(c2ccccc2)C(=O)NC(=O)N(C(=O)c2ccccc2)C1=O (centres undefined) ?
Response: False

Query: Which outcome did this test record for the molecule NCC(O)c1cccc(O)c1 (centres undefined) ?
Response: False

Query: Which outcome did this test record for the molecule COCC(C)N(C(=O)CCl)c1c(C)csc1C (centres undefined) ?
Response: False

Query: Which outcome did this test record for the molecule `O=[N+]([O-])c1ccc(F)c([N+](=O)[O-])c1` ?
Response: False

Query: Which outcome did this test record for the molecule O=C1CCCCC1CN1CCCCC1 (centres undefined) ?
Response: False

Query: Which outcome did this test record for the molecule `N#CC(C#N)=Cc1cc(O)c(O)c(O)c1` ?
Response: True

Query: Which outcome did this test record for the molecule `O=P(O)(O)C(Cl)(Cl)P(=O)(O)O` ?
Response: False

Query: Which outcome did this test record for the molecule C[C@H]1CC[C@@H]2[C@@H](C)[C@H]3[C@H](C[C@H]4[C@@H]5CC=C6CC(O[C@@H]7O[C@H](CO)[C@H](O)[C@H](O[C@@H]8O[C@H](CO)[C@@H](O)[C@H](O)[C@H]8O)[C@H]7O[C@H]7O[C@@H](C)[C@H](O)[C@@H](O)[C@H]7O)CC[C@]6(C)[C@H]5CC[C@]34C)N2C1 (some centres undefined) ?
Response: False
